Biological target: human Orexin type 2 receptors (Homo sapiens (Human), UniProt O43614)
Sequence (O43614 whole entry): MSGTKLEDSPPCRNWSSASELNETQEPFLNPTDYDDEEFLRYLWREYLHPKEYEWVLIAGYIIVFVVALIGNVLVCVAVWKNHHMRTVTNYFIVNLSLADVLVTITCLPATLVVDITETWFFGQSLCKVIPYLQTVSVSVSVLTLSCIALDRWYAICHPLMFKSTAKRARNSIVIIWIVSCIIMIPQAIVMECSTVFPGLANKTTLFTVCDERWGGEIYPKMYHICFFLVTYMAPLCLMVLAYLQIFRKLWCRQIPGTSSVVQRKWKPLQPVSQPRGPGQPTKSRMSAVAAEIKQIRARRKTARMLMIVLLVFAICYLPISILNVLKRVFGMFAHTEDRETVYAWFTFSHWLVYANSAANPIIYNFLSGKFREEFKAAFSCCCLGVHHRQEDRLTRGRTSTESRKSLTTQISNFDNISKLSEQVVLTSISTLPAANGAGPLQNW
Test: Scintillation Proximity Assay (SPA) binding assay, [3H]EMPA displacement, HEK-hOX2 membranes
Settings: Table 1, [3H]EMPA 2 nM
Value Kind: OX2 pKi (SPA binding)
Keep the answer to the number alone.

// below: answered compounds
Cc1ccc(-n2nccn2)c(C(=O)N2C3CC(C3)[C@H](C)C2COc2ccc(F)cc2)c1 (stereo partly shown) [Example 109]    5.89
Cc1nc(C(=O)N2C(COc3cc4ccccc4cn3)CC3CC2C3)c(-c2ccccc2)s1 (stereo not shown) [Example 38]    6.9
Cc1nc(C(=O)N2C(COc3ccc4ccccc4n3)CC3CC2C3)c(-c2ccccc2)s1 (stereo not shown) [Example 56]    7.12
Cc1nc(C(=O)N2C(COc3ccc(F)cc3)CC3CC2C3)c(-c2ccccc2F)s1 (stereo not shown) [Example 40]    6.19
O=C(c1nc(C2CC2)sc1-c1ccccc1)N1C(COc2ccc(F)cc2)CC2CC1C2 (stereo not shown) [Example 53]    7.13

Prompt: I have this compound here, Cc1ccc(-n2nccn2)c(C(=O)N2C3CC(C3)[C@@H](C)C2COc2ccc(Cl)cn2)n1 (stereo partly shown) [Example 99] , and I need its recorded OX2 pKi (SPA binding).
Completion: 6.18

Prompt: I have this compound here, Cc1ccc(OCC2CC3CC(C3)N2C(=O)c2nc(C)sc2-c2ccccc2)cc1 (stereo not shown) [Example 48] , and I need its recorded OX2 pKi (SPA binding).
Completion: 6.53

Prompt: I have this compound here, Cc1nc(C(=O)N2C(COc3cccc(F)c3)CC3CC2C3)c(-c2ccccc2)s1 (stereo not shown) [Example 44] , and I need its recorded OX2 pKi (SPA binding).
Completion: 6.38

Prompt: I have this compound here, Cc1ccc(OCC2[C@H](C)C3CC(C3)N2C(=O)c2nc(C)ccc2-n2nccn2)nc1 (mixture of isomers) [Example 100] , and I need its recorded OX2 pKi (SPA binding).
Completion: 5.96

Prompt: I have this compound here, Cc1nc(C(=O)N2C3CC(C3)[C@H](F)[C@H]2COc2ccc(F)cn2)c(-c2ccccc2)s1 (single isomer, unassigned) [Example 63] , and I need its recorded OX2 pKi (SPA binding).
Completion: 6.37
